Biological target: T1, HLA-DP4 molecule DP402 (DPA1*0103/DPB1*0402) (human), P20036
T1 chain 1: not shown
T1 chain 2: not shown
Assay: competition ELISA

{"binder": "RNGYRALMDKSLHVGTQCALTRR (modifications not checked) [MART1 51-73]", "IC50 [nM]": 4000}
{"binder": "GPGAPADVQYDLYLNVANRR (modifications not checked) [IL3 127-146]", "IC50 [nM]": 30}
{"binder": "TISSYFVGKMYFNLIDTK (modifications not checked) [Api m1 77-94]", "IC50 [nM]": 175}
{"binder": "GVQIVRQIRSGERFLKIWSQ (modifications not checked) [NS-p2 (RV NS 101-120)]", "IC50 [nM]": 40}
{"binder": "LLEFYLAMPFATPMEAELARRSLAQ (modifications not checked) [NY-ESO1 87-111]", "IC50 [nM]": 87}
{"binder": "LLTQHFVQENYLEY (modifications not checked) [MAG 245-258]", "IC50 [nM]": 400}
